The reported measurements were obtained from patent US5605929A.

# Subject of test: human 5α-reductase isozyme type 2 (Homo sapiens)
# Construct: expressed in transfected cells; host or cells: Rat-1A cells infected with pMV7 retrovirus; microsomes of these cells
# Sequence (P31213 1-254): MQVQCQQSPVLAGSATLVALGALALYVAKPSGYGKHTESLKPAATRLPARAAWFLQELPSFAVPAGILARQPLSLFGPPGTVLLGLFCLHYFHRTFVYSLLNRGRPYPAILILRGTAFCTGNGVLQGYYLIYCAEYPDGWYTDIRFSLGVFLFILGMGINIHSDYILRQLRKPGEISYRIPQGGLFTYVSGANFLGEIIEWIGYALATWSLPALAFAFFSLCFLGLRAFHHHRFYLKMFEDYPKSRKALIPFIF
# Test protocol: [3H]4-MA binding, human type 2 isozyme expressed in Rat-1A cells
# Assay setup: read-out: % Inhibition of [^3 H]4-MA binding
Record form. Attribute: inhibition at 100 µM. Fill in for each entry.
Give just the number in %; leave the unit off.

Ask: Determine from records and report inhibition at 100 µM for O=C(O[C@@H]1Cc2c(O)cc(O)cc2O[C@@H]1c1ccc(O)c(O)c1)c1cc(O)c(O)c(O)c1 [ECG, (-)Epicatechin-3-gallate]
Reply: 80

Ask: Determine from records and report inhibition at 100 µM for CCCCC/C=C\C/C=C\C/C=C\CCCCC(=O)O [γ-Linolenic acid, γ-linolenic acid]
Reply: 88

Ask: Determine from records and report inhibition at 100 µM for Oc1cc(O)c2c(c1)O[C@H](c1cc(O)c(O)c(O)c1)[C@H](O)C2 [EGC, (-)Epigallocatechin]
Reply: 14

Ask: Determine from records and report inhibition at 100 µM for O=C(O[C@@H]1Cc2c(O)cc(O)cc2O[C@@H]1c1cc(O)c(O)c(O)c1)c1cc(O)c(O)c(O)c1 [EGCG, (-)Epigallocatechin-3-gallate]
Reply: 89

###

# Subject of test: 5α-Reductase of Rat Liver Microsomes (Rattus norvegicus)
# Sequence (P24008 whole entry): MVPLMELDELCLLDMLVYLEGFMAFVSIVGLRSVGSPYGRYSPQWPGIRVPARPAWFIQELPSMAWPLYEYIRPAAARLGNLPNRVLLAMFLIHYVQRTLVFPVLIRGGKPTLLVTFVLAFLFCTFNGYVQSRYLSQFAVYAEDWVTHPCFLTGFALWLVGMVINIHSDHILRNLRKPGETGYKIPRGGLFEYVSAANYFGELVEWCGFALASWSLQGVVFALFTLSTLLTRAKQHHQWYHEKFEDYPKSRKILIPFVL
Test readout: inhibitory activity in [^3 H]4-MA binding assay

Sample records with inhibitory activity in [^3 H]4-MA binding assay:
- Compound: "CCCCCCCC/C=C\\CCCCCCCC(=O)OCC(O)COC(=O)CCCCCCC/C=C\\CCCCCCCC"
  Observed measurement: "slightly stimulatory"
- Compound: "CCCCC[C@H](O)/C=C/[C@H]1[C@H](O)CC(=O)[C@@H]1C/C=C\\CCCC(=O)O [Prostaglandin E2]"
  Observed measurement: "not active"
- Compound: "C=CCCCCCCCCC(=O)O"
  Observed measurement: "inactive"
- Compound: "CCCCCCCC/C=C\\CCCCCCCCCCCCCC(=O)O"
  Observed measurement: "inactive"
- Compound: "CCCCC[C@H](O)/C=C/[C@@H]1[C@H]2C/C(=C/CCCC(=O)O)O[C@H]2C[C@H]1O"
  Observed measurement: "not active"
- Compound: "CC1=C(/C=C/C(C)=C/C=C/C(C)=C\\C(=O)O)C(C)(C)CCC1 [13-cis-retinoic acid]"
  Observed measurement: "slightly stimulatory"
- Compound: "CCCCCCCC/C=C\\CCCCCCCCCCCC(=O)O"
  Observed measurement: "inactive"

In the following, a different compound is considered.
Ask: # assay system 5α-Reductase of Rat Liver Microsomes (Rattus norvegicus): give inhibitory activity in [^3 H]4-MA binding assay of CC1=C(/C=C/C(C)=C/C=C/C(C)=C\CO)C(C)(C)CCC1 [13-cis-retinol]
Reply: slightly stimulatory
